Documented melting point across a set of molecules
measured.property: melting point

>  <molecule>
CC(C)CC(NC(=O)Cc1ccc(NC(=O)Nc2c(Cl)cccc2Cl)cc1)c1ncc(CCC(=O)O)s1 (stereo not shown)

>  <measured.property>
melting point

>  <test.value>
148 to 150 °C

$$$$
>  <molecule>
CC(C)CC(NC(=O)Cc1ccc(NC(=O)Nc2ccccn2)cc1)c1ncc(CCC(=O)O)s1 (stereo not shown)

>  <measured.property>
melting point

>  <test.value>
173 to 175 °C

$$$$
>  <molecule>
CC(C)CC(NC(=O)Cc1ccc(NC(=O)Nc2ccccc2)cc1)c1ncc(CCC(=O)O)s1 (stereo not shown)

>  <measured.property>
melting point

>  <test.value>
146 to 148 °C

$$$$
>  <molecule>
COc1ccccc1NC(=O)Nc1ccc(CC(=O)NC(CC(C)C)c2ncc(CCC(=O)O)s2)cc1 (stereo not shown)

>  <measured.property>
melting point

>  <test.value>
197 to 198 °C

$$$$

Attribution: patent US6355662B1
